# viability, T/C values compiled below
Test system: 282377-053-R-J1-PDC complex spheroid viability;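 also: spheroids exposed to compounds for seven days; 100% = DMSO vehicle control viability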
Assay: Anticancer human tumor 282377-053-R-J1-PDC patient-derived colon adenocarcinoma cell line growth inhibition [POLQ]
Settings: second compound 1 µM; first compound 0.001 µM; hits give low values
experimentalEndpoint: viability, T/C (%)

INSERT INTO results (compound, observedresult) VALUES
  ('CC[C@@]1(O)C(=O)OCc2c1cc1n(c2=O)Cc2cc3c(CN(C)C)c(O)ccc3nc2-1 + Cc1cccc(N(C)C(=O)C2C(O)CCN2c2nc(C)cc(C(F)(F)F)c2C#N)c1', 92.6),
  ('CC[C@@]1(O)C(=O)OCc2c1cc1n(c2=O)Cc2cc3c(CN(C)C)c(O)ccc3nc2-1 + Nc1ccc(C#CCN(C(=O)Cc2ncc(C(F)(F)F)cc2C(F)(F)F)c2ccc(F)cc2)nn1', 88.9),
  ('Cn1ncnc1[C@H]1c2n[nH]c(=O)c3cc(F)cc(c23)N[C@@H]1c1ccc(F)cc1 + Cc1cccc(N(C)C(=O)C2C(O)CCN2c2nc(C)cc(C(F)(F)F)c2C#N)c1', 110),
  ('CC[C@@]1(O)C(=O)OCc2c1cc1n(c2=O)Cc2cc3c(CN(C)C)c(O)ccc3nc2-1 + COC1C(OC(N)=O)C(O)C(Oc2ccc3c(O)c(NC(=O)c4ccc(O)c(CC=C(C)C)c4)c(=O)oc3c2C)OC1(C)C', 112),
  ('Cn1ncnc1[C@H]1c2n[nH]c(=O)c3cc(F)cc(c23)N[C@@H]1c1ccc(F)cc1 + COC1C(OC(N)=O)C(O)C(Oc2ccc3c(O)c(NC(=O)c4ccc(O)c(CC=C(C)C)c4)c(=O)oc3c2C)OC1(C)C', 111),
  ('Cn1ncnc1[C@H]1c2n[nH]c(=O)c3cc(F)cc(c23)N[C@@H]1c1ccc(F)cc1 + Nc1ccc(C#CCN(C(=O)Cc2ncc(C(F)(F)F)cc2C(F)(F)F)c2ccc(F)cc2)nn1', 96.8);
